Source listed as patent US10874743B2.

- Protocol: Pharmacokinetics in CD-1 mice (plasma concentrations, PK parameters)
- Type: in vivo
- Assay context: CD-1, mouse, plasma, po, 30 mg/kg, mouse (CD1) po 30 mg/kg; individual Mouse 4-6; read-out: AUClast
Outcome measure: AUC(0-t) (ng·h/mL)

>>> assay_result("O=C1CCC(N2C(=O)c3cccc(NCCOCCOCCNCc4ccc(-n5cc(NC(=O)c6coc(-c7ccnc(NCC8CC8)c7)n6)c(C(F)F)n5)cc4)c3C2=O)C(=O)N1 (stereo not shown)")
786

* * *

- Protocol: Pharmacokinetics in Sprague Dawley rats (plasma and brain concentrations, PK parameters)
- Format: in vivo
- Assay context: Sprague-Dawley, rat, plasma, iv, 3 mg/kg, Sprague Dawley rat, iv 3 mg/kg, plasma, 4 h, Rat 3; read-out: Concentration Rat 3
- Procedure: Pharmacokinetics for I-127, I-172 and I-210 were determined in Sprague Dawley rats or CD-1 mice by dosing intravenous (IV), subcutaneous (SC) or per oral (PO) using facility SOPs and sampling plasma at required time points. […] Compounds were extracted from plasma, injected on reverse phase HPLC, eluted with a gradient from 5% to 95% acetonitrile in water and quantified by mass spectrometry with internal standard. […]
Outcome measure: concentration at 4 h (ng/mL)

>>> assay_result("O=C1CCC(N2C(=O)c3cccc(NCCOCCOCCNCc4ccc(-n5cc(NC(=O)c6coc(-c7ccnc(NCC8CC8)c7)n6)c(C(F)F)n5)cc4)c3C2=O)C(=O)N1 (stereo not shown)")
64.5
